Target: RIPK1 kinase (Homo sapiens, UniProt Q13546)
Construct: purchased Promega VA7593
Sequence (Q13546 1-671): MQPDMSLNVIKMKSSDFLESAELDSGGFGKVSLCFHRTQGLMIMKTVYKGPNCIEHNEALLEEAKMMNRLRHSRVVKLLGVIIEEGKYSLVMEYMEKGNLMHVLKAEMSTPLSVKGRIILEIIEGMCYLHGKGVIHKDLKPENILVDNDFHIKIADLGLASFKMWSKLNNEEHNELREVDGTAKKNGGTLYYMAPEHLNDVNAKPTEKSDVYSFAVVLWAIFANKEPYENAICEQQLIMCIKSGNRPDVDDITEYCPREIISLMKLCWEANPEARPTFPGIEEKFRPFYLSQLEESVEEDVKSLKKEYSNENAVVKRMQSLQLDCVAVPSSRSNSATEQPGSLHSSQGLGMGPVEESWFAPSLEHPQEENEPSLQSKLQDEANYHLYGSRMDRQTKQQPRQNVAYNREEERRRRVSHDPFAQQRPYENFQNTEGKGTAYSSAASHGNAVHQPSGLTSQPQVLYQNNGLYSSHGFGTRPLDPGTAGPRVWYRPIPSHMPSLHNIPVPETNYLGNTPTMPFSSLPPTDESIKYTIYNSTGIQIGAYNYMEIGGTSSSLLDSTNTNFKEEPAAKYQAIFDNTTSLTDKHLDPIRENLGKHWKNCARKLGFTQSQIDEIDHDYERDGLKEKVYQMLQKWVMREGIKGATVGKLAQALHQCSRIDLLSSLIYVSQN
Test: In vitro RIPK1 kinase activity assay (ADP-Glo), inhibition by compounds at 1 μM
Assay type: biochemical
Conditions: compound 1 μM; ATP 10 μM; MBP substrate 100 μg/mL; read-out: RIPK1 kinase activity inhibition rate range
Result type: inhibition at 1 µM

Reference set (5 entries):
{"columns": ["Compound", "Result"],
 "data": [
  ["CN1C(=O)[C@@H](NC(=O)C(=O)NCCc2ccccc2)COc2ccc(Br)cc21", "50 to 74%"],
  ["CN1C(=O)C(NC(=O)C(=O)NCCc2ccccc2)CCc2ccc(C#CC3CCNCC3)cc21 (stereo not drawn)", "50 to 74%"],
  ["C[C@@H](NC(=O)C(=O)N[C@H]1COc2ccc(C#CC3CCN(C)CC3)cc2N(C)C1=O)c1ccccc1", "25 to 49%"],
  ["CN1C(=O)[C@@H](NC(=O)C(=O)NCCc2ccccc2)COc2ccc(C#CC3CCNCC3)cc21", "50 to 74%"],
  ["CN1C(=O)C(NC(=O)C(=O)NCCc2cccc(F)c2)CCc2ccc(C#CCCO)cc21 (stereo not drawn)", "≥ 75%"]
]}

Prompt line: Record request: inhibition at 1 µM value, item `CN1C(=O)[C@@H](NC(=O)C(=O)NCCc2ccccc2)COc2ccc(C#CC3CC3)cc21`
Response line: ≥ 75%

Prompt line: Record request: inhibition at 1 µM value, item CN1C(=O)[C@@H](NC(=O)C(=O)NCCc2ccccc2)COc2ccc(C#CCN)cc21.Cl [Example 87, hydrochloride]
Response line: 25 to 49%

Prompt line: Record request: inhibition at 1 µM value, item `CC(=O)N1CC(O)(C#Cc2ccc3c(c2)N(C)C(=O)[C@@H](NC(=O)C(=O)NCCc2ccccc2)CO3)C1`
Response line: ≥ 75%

Prompt line: Record request: inhibition at 1 µM value, item CC(CNC(=O)C(=O)N[C@H]1COc2ccc(C#CCCO)cc2N(C)C1=O)c1ccccc1 (mixture of isomers)
Response line: ≥ 75%

Prompt line: Record request: inhibition at 1 µM value, item `CN1C(=O)[C@@H](NC(=O)C(=O)NCCc2cccc(F)c2)COc2ccc(C#CCN3CCC(=O)CC3)cc21`
Response line: ≥ 75%
